assay: Volume of distribution at steady state in mouse blood at 5 mg/kg, iv; assay type: ADME, organism-based; conditions: read-out: Vdss
MEASURED_METRIC: Vd (L/kg)
Answer with a number only, understood to be in L/kg.

# Vd (compound: Cc1cc(-c2[nH]c3ccc(C4CCNCC4)cc3c2C(C)C)cc(C)n1 ) is 113

###

assay: Half life in mouse blood at 5 mg/kg, iv; assay type: ADME, organism-based
MEASURED_METRIC: half-life

Entry Cc1cc(-c2[nH]c3ccc(C4CCNCC4)cc3c2C(C)C)cc(C)n1 , half-life reported as 9 h

###

test: Oral bioavailability in mouse blood at 15 mg/kg; assay type: ADME, organism-based
MEASURED_METRIC: bioavailability (%)
Only the number, expressed in %, is required.

Entry Cc1cc(-c2[nH]c3ccc(C4CCNCC4)cc3c2C(C)C)cc(C)n1 , bioavailability reported as 58

###

assay: AUClast in mouse blood at 15 mg/kg, po; type: ADME, organism-based; parameters: time 0 - last, dose 15 mg/kg, route po
MEASURED_METRIC: AUC(0-t) (µM·h)
Give just the numeric value; µM·h need not be written.

The recorded AUC(0-t) for entry Cc1cc(-c2[nH]c3ccc(C4CCNCC4)cc3c2C(C)C)cc(C)n1 equals 2.77

###

species on record: Homo sapiens; assay: Selectivity ratio of IC50 for human TLR9 to IC50 for human TLR7
Label yes (1) when Ratio IC50 < 80; otherwise no (0).

A selection of reference data follows.
| CHEMICAL_SMILES | LABEL |
| --- | --- |
| Cc1cc(-c2[nH]c3ccc(C4CCNCC4)cc3c2C(C)C)c(C)cn1 | no (0) |
| Cc1cc(-c2[nH]c3ccc(C4CCNCC4)cc3c2C(C)C)c(C)c(C)n1 | no (0) |
| Cc1cnccc1-c1[nH]c2ccc(C3CCNCC3)cc2c1C(C)C | no (0) |
| Cc1cc(-c2[nH]c3ccc(C4CCNCC4)cc3c2C(C)C)cc(F)n1 | no (0) |
| Cc1nccc(-c2[nH]c3ccc(C4CCNCC4)cc3c2C(C)C)c1C | yes (1) |
| CCc1c(-c2ccnc(C)c2)[nH]c2c(F)cc(C3CCNCC3)cc12 | yes (1) |
| Cc1cc(-c2[nH]c3ccc(C4CCNCC4)cc3c2C(C)C)ccn1 | no (0) |
| Cc1cc(-c2[nH]c3cc(C(F)(F)F)c(C4CCNCC4)cc3c2C(C)C)ccn1 | yes (1) |

Here is another compound to look at.
In: Record CC(C)c1c(-c2ccnc(CO)c2)[nH]c2ccc(C3CCNCC3)cc12 : is its Ratio IC50 strictly below 80?
Out: yes (1)

###

experiment: Tmax in mouse blood at 15 mg/kg, po; type: ADME, organism-based
MEASURED_METRIC: Tmax (h)
Provide only the numeric value, understood in h.

Tmax reported for this compound Cc1cc(-c2[nH]c3ccc(C4CCNCC4)cc3c2C(C)C)cc(C)n1 : 5

###

assay: AUClast in mouse blood at 5 mg/kg, iv; format: ADME, organism-based; design: time 0 - last, dose 5 mg/kg, route iv
MEASURED_METRIC: AUC(0-t) (µM·h)
Please reply with the bare figure in µM·h and do not write the unit itself.

Please fill in: AUC(0-t) reported for Cc1cc(-c2[nH]c3ccc(C4CCNCC4)cc3c2C(C)C)cc(C)n1 = 1.58
